Collected IC50 values appear next to each entry.
Biological target: acetylcholinesterase (EC 3.1.1.7) (Homo sapiens, UniProt P22303)
Construct: purchased local market (no vendor named)
Sequence (P22303 32-614, species assumed): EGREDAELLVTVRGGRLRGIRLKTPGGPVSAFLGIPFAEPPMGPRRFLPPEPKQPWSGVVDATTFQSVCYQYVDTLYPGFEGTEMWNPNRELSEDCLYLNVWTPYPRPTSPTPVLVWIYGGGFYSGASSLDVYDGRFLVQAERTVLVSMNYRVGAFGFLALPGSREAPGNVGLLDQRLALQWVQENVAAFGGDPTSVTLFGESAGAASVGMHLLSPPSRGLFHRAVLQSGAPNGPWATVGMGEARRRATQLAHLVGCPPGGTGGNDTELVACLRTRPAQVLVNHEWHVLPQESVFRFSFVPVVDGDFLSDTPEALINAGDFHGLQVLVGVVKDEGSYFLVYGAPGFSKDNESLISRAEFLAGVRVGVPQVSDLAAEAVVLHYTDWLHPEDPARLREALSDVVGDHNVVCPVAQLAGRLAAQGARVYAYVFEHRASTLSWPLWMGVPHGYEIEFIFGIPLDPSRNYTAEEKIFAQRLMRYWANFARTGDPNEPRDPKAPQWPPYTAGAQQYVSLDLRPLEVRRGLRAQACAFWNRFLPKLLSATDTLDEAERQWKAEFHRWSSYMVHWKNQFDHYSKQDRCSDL
Assay: biochemical
Settings: triplicate (n = 3); 405 nm; read-out: IC50 (μM) AChE
Lab book: enter the figure in µM, no units written.

Study these solved cases before continuing.
{"smi": "COc1cc(/C=N/c2ccccc2C(F)(F)F)ccc1O", "unit_symbol": "µM", "IC50": 0.078}
{"smi": "Cc1ccc(/N=C/c2ccc(O)cc2)c(Cl)c1", "unit_symbol": "µM", "IC50": 0.108}
{"smi": "Oc1ccc(/C=N/c2ccccc2C(F)(F)F)cc1", "unit_symbol": "µM", "IC50": 0.157}
{"smi": "Cc1ccc(/N=C/c2ccccc2Br)c(Cl)c1", "unit_symbol": "µM", "IC50": 0.442}

Let us move to another entry and its IC50.
Sample COc1ccc(/C=N/c2ccccc2C(F)(F)F)cc1O , system: acetylcholinesterase (EC 3.1.1.7) (Homo sapiens, UniProt P22303). Its IC50 is 0.61

====

Biological target: butyrylcholinesterase (EC 3.1.1.8) (Homo sapiens, UniProt P06276)
Construct: purchased local market (no vendor named)
Sequence (P06276 29-602): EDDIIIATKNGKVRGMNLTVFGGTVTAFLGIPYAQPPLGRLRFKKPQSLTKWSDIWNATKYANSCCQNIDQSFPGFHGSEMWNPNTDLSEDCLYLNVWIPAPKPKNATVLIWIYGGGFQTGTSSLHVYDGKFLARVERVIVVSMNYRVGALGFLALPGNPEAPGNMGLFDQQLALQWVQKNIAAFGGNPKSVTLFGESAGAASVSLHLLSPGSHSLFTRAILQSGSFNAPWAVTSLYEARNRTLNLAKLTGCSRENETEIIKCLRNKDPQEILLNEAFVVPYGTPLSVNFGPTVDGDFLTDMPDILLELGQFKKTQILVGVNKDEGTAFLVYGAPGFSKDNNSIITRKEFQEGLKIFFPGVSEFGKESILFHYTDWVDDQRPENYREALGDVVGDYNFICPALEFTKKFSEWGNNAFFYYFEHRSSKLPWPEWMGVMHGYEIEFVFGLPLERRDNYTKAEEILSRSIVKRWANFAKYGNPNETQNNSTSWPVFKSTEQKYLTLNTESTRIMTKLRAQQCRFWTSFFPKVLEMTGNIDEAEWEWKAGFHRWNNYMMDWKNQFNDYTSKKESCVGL
Assay: In-vitro BChE inhibitory assay (Ellman's protocol)
Type: biochemical
Conditions: triplicate (n = 3); 405 nm
Threshold check on IC50: strictly below 0.2 µM is y; on or above 0.2 µM is n.

Sample answers from the record:
{"smi": "COc1ccc(/C=N/c2ccccc2C(F)(F)F)cc1O", "classification": "y"}
{"smi": "Cc1ccc(/N=C/c2ccccc2Br)c(Cl)c1", "classification": "y"}
{"smi": "COc1cc(/C=N/c2ccccc2C(F)(F)F)ccc1O", "classification": "n"}
{"smi": "Cc1ccc(/N=C/c2ccc(O)cc2)c(Cl)c1", "classification": "n"}
{"smi": "Oc1ccc(/C=N/c2ccccc2C(F)(F)F)cc1", "classification": "y"}

Is IC50 of Cc1ccc(/N=C/c2ccc[nH]2)c(Cl)c1 strictly below 0.2 µM?
y
